target: mGluR5 receptor (Sus scrofa, UniProt I3LUI7); construct: 450 μg of protein from brain homogenate with 5 nM ^3[H]-MPEP; from tissue; host or cells: pig brain halves without medulla, cerebellum and pons; assay: [3H]-MPEP mGluR5 receptor binding assay (pig brain homogenate); details: 5 nM [3H]-MPEP, read-out: IC50 mGluR5 Receptor (pig) [^3H]-MPEP Bond
Sequence (I3LUI7 19-1212): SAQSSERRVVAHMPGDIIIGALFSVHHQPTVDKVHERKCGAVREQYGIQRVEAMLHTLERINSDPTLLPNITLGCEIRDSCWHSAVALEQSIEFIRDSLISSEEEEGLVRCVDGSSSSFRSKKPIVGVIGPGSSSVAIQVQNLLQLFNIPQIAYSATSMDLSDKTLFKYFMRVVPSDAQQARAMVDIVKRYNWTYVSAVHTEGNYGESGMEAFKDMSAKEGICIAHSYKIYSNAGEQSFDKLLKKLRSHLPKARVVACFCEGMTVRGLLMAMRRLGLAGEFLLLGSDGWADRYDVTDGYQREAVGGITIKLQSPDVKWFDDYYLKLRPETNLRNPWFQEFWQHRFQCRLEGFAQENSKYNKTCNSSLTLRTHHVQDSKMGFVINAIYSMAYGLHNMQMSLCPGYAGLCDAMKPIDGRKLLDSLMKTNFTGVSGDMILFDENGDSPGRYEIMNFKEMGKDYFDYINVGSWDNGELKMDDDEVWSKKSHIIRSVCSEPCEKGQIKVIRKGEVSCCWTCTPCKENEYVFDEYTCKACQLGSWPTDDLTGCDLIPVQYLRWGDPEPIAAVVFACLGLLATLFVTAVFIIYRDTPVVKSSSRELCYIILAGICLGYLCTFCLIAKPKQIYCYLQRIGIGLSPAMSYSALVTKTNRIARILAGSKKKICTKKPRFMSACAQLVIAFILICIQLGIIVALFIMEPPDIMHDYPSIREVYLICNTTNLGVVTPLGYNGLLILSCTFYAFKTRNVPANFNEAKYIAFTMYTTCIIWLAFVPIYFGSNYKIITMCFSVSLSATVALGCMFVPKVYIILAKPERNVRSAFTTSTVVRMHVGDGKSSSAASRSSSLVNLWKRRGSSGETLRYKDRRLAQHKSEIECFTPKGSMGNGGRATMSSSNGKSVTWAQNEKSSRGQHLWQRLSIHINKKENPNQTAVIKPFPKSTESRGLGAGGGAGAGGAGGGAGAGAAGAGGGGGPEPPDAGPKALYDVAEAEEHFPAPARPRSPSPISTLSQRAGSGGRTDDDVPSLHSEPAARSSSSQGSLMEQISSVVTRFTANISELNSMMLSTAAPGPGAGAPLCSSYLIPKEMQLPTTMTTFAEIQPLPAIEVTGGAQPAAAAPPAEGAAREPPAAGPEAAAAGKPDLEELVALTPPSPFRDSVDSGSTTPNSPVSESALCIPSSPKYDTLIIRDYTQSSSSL
Counter-ions that a name gives are not always drawn.
Task for the reader: assign each of the following compounds its reported pIC50.
Answers are plain numbers, as −log10 of the molar value.

Report pIC50 for every entry below.
1. N#CCC(=O)N(Cc1cc(-c2ccc3ncnc(NC4CC4)c3c2)ccc1F)C1CC1 [Example 277]
2. COC(=O)CC(=O)N(Cc1cccc(-c2ccc3ncnc(NC4CC4)c3c2)c1)C1CC1 [Example 237]
3. CC(=O)N(Cc1cc(F)cc(-c2ccc3ncnc(NC4CC4)c3c2)c1)C1CC1 [Example 897]
4. COC(=O)C(=O)N(Cc1cccc(-c2ccc3ncnc(NC4CC4)c3c2)c1)C1CC1 [Example 238]
5. CC(=O)N(Cc1cccc(-c2ccc3ncnc(NC4CC4)c3c2)c1F)C1CC1 [Example 191]
6. CC(=O)N(Cc1cc(C)cc(-c2ccc3ncnc(NC4CC4)c3c2)c1)C1CC1 [Example 239]
7. O=C1CCC(=O)N1Cc1cccc(-c2ccc3ncnc(NC4CC4)c3c2F)c1 [Example 904]
8. O=C(c1ccccc1)N(Cc1cc(-c2ccc3ncnc(NC4CC4)c3c2)ccc1F)C1CC1 [Example 269]

1: 7.40; 2: 6.24; 3: 7.70; 4: 6.30; 5: 6.17; 6: 5.39; 7: 6.66; 8: 6.55

Report pIC50 for every entry below.
1. O=C1CCC(=O)N1Cc1cccc(-c2cc(Cl)c3ncnc(NC4CC4)c3c2)c1 [Example 881]
2. CC(=O)N(Cc1cccc(-c2ccc3ncnc(NC4CC4)c3c2)c1)C1CC1 [Example 271]
3. CC(=O)N(Cc1cc(-c2ccc3ncnc(NC4CC4)c3c2)ccc1Cl)C1CC1 [Example 777]
4. COc1ccc(-c2ccc3ncnc(NC4CC4)c3c2)cc1CN(C(C)=O)C1CC1 [Example 259]
5. CC1CC(=O)N(Cc2cccc(-c3ccc4ncnc(NC5CC5)c4c3)c2)C1=O (stereo not shown) [Example 245]
6. O=C1CCC(=O)N1Cc1cccc(-c2cc(C(F)(F)F)c3ncnc(NC4CC4)c3c2)c1 [Example 883]

7.70
6.85
7.30
6.54
6.85
7.70

Report pIC50 for every entry below.
1. CCCCN(Cc1cccc(-c2ccc3ncnc(NC4CC4)c3c2)c1)C(C)=O [Example 218, hydrochloride]
2. O=C1CC(c2ccccc2)C(=O)N1Cc1cccc(-c2ccc3ncnc(NC4CC4)c3c2)c1 (stereo not shown) [Example 229, hydrochloride]
3. O=C1CCC(=O)N1Cc1cc(-c2ccc3ncnc(NC4CC4)c3c2)ccc1F [Example 193]

5.52
5.46
6.57

---

molecular target: mGluR5 receptor (Sus scrofa); construct: 450 μg of protein from brain homogenate with 5 nM ^3[H]-MPEP; from tissue; host or cells: pig brain halves without medulla, cerebellum and pons; test: [3H]-MPEP mGluR5 receptor binding assay (pig brain homogenate); settings: 5 nM [3H]-MPEP, read-out: IC50 mGluR5 Receptor (pig) [^3H]-MPEP Bond
Where a name gives a salt, the structure may show the parent alone.
Task for the reader: assign each of the following compounds its reported IC50.
Numbers only, in nM.

These recorded examples may help you get a feel for the data.
1. O=C1CCC(=O)N1Cc1cccc(-c2ccc3ncnc(NC4CC4)c3c2)c1 [Example 258]
50
2. CC(=O)N(Cc1ccc(-c2ccc3ncnc(NC4CC4)c3c2)o1)C1CC1 [Example 232]
4270
3. CC1CCC(=O)N1Cc1cccc(-c2ccc3ncnc(NC4CC4)c3c2)c1 (centres unmarked) [Example 885]
400
4. O=C(c1ccncc1)N(Cc1cccc(-c2ccc3ncnc(NC4CC4)c3c2)c1)C1CC1 [Example 257]
740

Report IC50 for every entry below.
1. O=C1CCC(=O)N1Cc1cccc(-c2ccc3ncnc(NC4CCCC4)c3c2)c1 [Example 287, hydrochloride]
2. CC(=O)N(Cc1cc(-c2ccc3ncnc(NC4CC4)c3c2)ccc1F)C(C)(C)C [Example 279]
3. O=C1CCC(=O)N1Cc1cc(F)cc(-c2ccc3ncnc(NC4CC4)c3c2)c1 [Example 889]
4. O=C1CCC(=O)N1Cc1cccc(-c2cc3c(NC4CC4)ncnc3cc2F)c1 [Example 882]
5. Fc1ccc(-c2ccc3ncnc(NC4CC4)c3c2)c(F)c1CNC1CC1 [Example 304]
6. O=S(=O)(c1ccccc1)N(Cc1cccc(-c2ccc3ncnc(NC4CC4)c3c2)c1)C1CC1 [Example 227]
7. COc1cc2ncnc(NC3CC3)c2cc1-c1cccc(CN2C(=O)CCC2=O)c1 [Example 899]

1. 60
2. 9420
3. 500
4. 70
5. 3110
6. 2570
7. 160

Report IC50 for every entry below.
1. c1cc(CN(c2nccs2)C2CC2)cc(-c2ccc3ncnc(NC4CC4)c3c2)c1 [Example 892]
2. CS(=O)(=O)N(Cc1c(F)ccc(-c2ccc3ncnc(NC4CC4)c3c2)c1F)C1CC1 [Example 246]
3. N#CCC(=O)N(Cc1cc(-c2ccc3ncnc(NC4CC4)c3c2)ccc1F)C1CC1 [Example 281, hydrochloride]
4. CC(=O)N(Cc1cccc(-c2cc3c(NC4CC4)ncnc3cc2C)c1)C1CC1 [Example 710]
5. O=C1COCC(=O)N1Cc1cccc(-c2ccc3ncnc(NC4CC4)c3c2)c1 [Example 212]

1: 80; 2: 350; 3: 30; 4: 110; 5: 100

Form field: reported IC50 of O=C(C1CCCCC1)N(Cc1cccc(-c2ccc3ncnc(NC4CC4)c3c2)c1)C1CC1 [Example 265]
1890

Cited source for all entries: patent US20090069320A1
